Consider the following variants; for each one, report its abundance fitness.
B1: Tesmin, residues 368 to 403; numbered along this chain, Q9Y4I5 (parent)
chain: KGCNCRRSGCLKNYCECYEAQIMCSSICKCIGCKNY

Variants of: B1
Test: abundance fitness (aPCA) (normalised: wild type 0, dead -1); higher = more abundant; growth selection in yeast, the domain comes from the species named
Conditions: Homo sapiens

Some variants with known abundance fitness results, for comparison:
{"columns": ["Monomer Sequence", "abundance fitness"],
 "data": [
  ["KGCNCRRSGCLKNYCECYEAQIMCSSICKCIGCINY", -0.503],
  ["KGCNCRREGCLKNYCECYEAQIMCSSICKCIGCKNY", -0.08],
  ["KGCNCRRSGCLKNYCECYEAQIMCDSICKCIGCKNY", -0.334],
  ["KGCNCRRSGCLKNYCECYEAKIMCSSICKCIGCKNY", -0.065]
]}

Would you mind giving abundance fitness for every variant in the list below?
1. KGCNCRRSGCLKNYCECYEAQIMCSSICKCIGCPNY
2. KGCNCRRSGCLKNYCECYEAQIMCSSICKCIGCKYY
3. KGCNCRRSGCLKNYCECYEAQIMCSSICKCIGCKPY

[reply]
1: 0.161; 2: -0.64; 3: -0.055

Hello, I would appreciate it if you could give abundance fitness for each entry below.
1. KGCNCRRSGCLKNYCECYEAQIMCSSICKCIGRKNY
2. KGCNCRRSGCLKNYCECYEAQIMCSSICKCIACKNY
3. KGFNCRRSGCLKNYCECYEAQIMCSSICKCIGCKNY
4. KGCNCRRSGCLKNYCECYEAQIMCSSICKCIGCKRY

[reply]
1: -0.245; 2: -0.196; 3: -0.567; 4: -0.019
